Below, each entry is listed with its recorded IC50.
molecular target: Caspase-3 (Homo sapiens, UniProt P42574); assay type: functional;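 further: Dose-response selectivity test against caspase-3 for candidate inhibitors of sentrin-specific proteases (SENPs)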
Sequence (P42574 29-175 limits assumed): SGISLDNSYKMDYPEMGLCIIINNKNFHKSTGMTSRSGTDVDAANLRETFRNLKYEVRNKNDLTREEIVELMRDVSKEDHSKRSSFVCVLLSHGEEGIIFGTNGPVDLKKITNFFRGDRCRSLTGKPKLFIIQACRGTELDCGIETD
Sequence (P42574 176-277 limits assumed): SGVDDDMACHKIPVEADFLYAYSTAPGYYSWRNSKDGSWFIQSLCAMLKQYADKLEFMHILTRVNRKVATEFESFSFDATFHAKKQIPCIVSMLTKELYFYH
Activity calls are given as the source filed them.
quantityName: IC50

molecule=CC(C)C(=O)Nc1ccc2nn(-c3ccccc3)nc2c1 quantityname=IC50 measuredvalue="26.7 µM (active)"
molecule=Cc1ccccc1-c1nc2cc(Cl)ccc2o1 quantityname=IC50 measuredvalue="12.9 µM (active)"
molecule=CCCCNc1nc(N)nc(-c2cc(Cl)ccc2O)n1 quantityname=IC50 measuredvalue="44.1 µM (active)"
molecule=O=C1C2=[N+]([O-])[C@H]3CCCC[C@H]3[N+]([O-])=C2c2ccccc21 quantityname=IC50 measuredvalue="15.4 µM (active)"

Each recorded value in this set is attributed to ChEMBL document CHEMBL1201862.
